Listed molecules paired with reported HEMOGLOBIN
# Species on record: Rattus norvegicus
# protocol.details: DrugMatrix - Regimen: Daily Repeat
# Assay type: toxicity, organism-based, Sprague-Dawley
# Set-up: regimen Daily Repeat, gender Male, age 6-8 weeks
# experimental.parameters: in vivo, po, 0 mg/kg, 72 h, tissue Blood, route oral GAVAGE, dose level Control, time 3 day, vehicle .5 % CMC
I only need the number, in G/DL, no unit after it.

Some solved entries appear below for comparison.
>  <molecule>
C=C(CC)C(=O)c1ccc(OCC(=O)O)c(Cl)c1Cl

>  <HEMOGLOBIN, G/DL>
14.58

$$$$
>  <molecule>
CC[C@]1(O)CC[C@H]2[C@@H]3CCC4=CCCC[C@@H]4[C@H]3CC[C@@]21C

>  <HEMOGLOBIN, G/DL>
13.48

$$$$

# next molecule below
Lookup: Please give measured HEMOGLOBIN of the following entry: CC(=O)O[C@]1(C(C)=O)CC[C@H]2[C@@H]3C=C(Cl)C4=CC(=O)[C@@H]5C[C@@H]5[C@]4(C)[C@H]3CC[C@@]21C [CYPROTERONE ACETATE]
Found: 13.82

* * *

Reported TOTAL BILIRUBIN is given for each of the following compounds.
# Organism: Rattus norvegicus
# protocol.details: DrugMatrix - Regimen: Daily Repeat
# Assay type: toxicity, organism-based, Sprague-Dawley
# Parameters: regimen Daily Repeat, gender Male, age 6-8 weeks
# experimental.parameters: in vivo, po, 0 mg/kg, 120 h, tissue Plasma, route oral GAVAGE, dose level Control, time 5 day, vehicle .5 % CMC
Response body: numeric value in mg/dL, unit text excluded.

In the examples that follow, each entry is paired with its recorded TOTAL BILIRUBIN.
>  <compound>
CC(=O)O[C@]1(C(C)=O)CC[C@H]2[C@@H]3C=C(Cl)C4=CC(=O)[C@@H]5C[C@@H]5[C@]4(C)[C@H]3CC[C@@]21C [CYPROTERONE ACETATE]

>  <TOTAL BILIRUBIN (mg/dL)>
0.2

$$$$
>  <compound>
COc1ccc(/C=C/C(=O)Nc2ccccc2C(=O)O)cc1OC

>  <TOTAL BILIRUBIN (mg/dL)>
0.2

$$$$
>  <compound>
CN1C(=O)CN=C(c2ccccc2)c2cc(Cl)ccc21 [DIAZEPAM]

>  <TOTAL BILIRUBIN (mg/dL)>
0.18

$$$$
>  <compound>
COc1ccccc1OCC(O)COC(N)=O (stereo unspecified) [METHOCARBAMOL]

>  <TOTAL BILIRUBIN (mg/dL)>
0.2

$$$$
>  <compound>
Nc1cccc(Cl)c1 [3-CHLOROANILINE]

>  <TOTAL BILIRUBIN (mg/dL)>
0.28

$$$$

Lookup: Give recorded TOTAL BILIRUBIN. C[C@@H](O)[C@H]1C(=O)N2C(C(=O)O)=C(S[C@@H]3CN[C@H](C(=O)N(C)C)C3)[C@H](C)[C@H]12 [MEROPENEM]
Found: 0.2

Lookup: Supply measured TOTAL BILIRUBIN of CC(C(=O)O)c1ccc(-c2ccccc2)c(F)c1 (stereo unspecified) [FLURBIPROFEN] in your reply.
Found: 0.2

Lookup: Supply recorded TOTAL BILIRUBIN for C[C@]12C/C(=C/O)C(=O)C[C@@H]1CC[C@@H]1[C@@H]2CC[C@@]2(C)[C@H]1CC[C@]2(C)O [OXYMETHOLONE] here.
Found: 0.58

Lookup: Given the compound CO[C@H]1C[C@@H]2CC[C@@H](C)[C@@](O)(O2)C(=O)C(=O)N2CCCC[C@H]2C(=O)O[C@H]([C@H](C)C[C@@H]2CC[C@@H](O)[C@H](OC)C2)CC(=O)[C@H](C)/C=C(\C)[C@@H](O)[C@@H](OC)C(=O)[C@H](C)C[C@H](C)/C=C/C=C/C=C/1C [SIROLIMUS] , write its reported TOTAL BILIRUBIN.
Found: 0.17

Lookup: Dear colleague, please send me the reported TOTAL BILIRUBIN for CCCCC1C(=O)N(c2ccccc2)N(c2ccccc2)C1=O [PHENYLBUTAZONE] when you can.
Found: 0.17

Lookup: Read the entry "CC[C@]1(O)CC[C@H]2[C@@H]3CCC4=CCCC[C@@H]4[C@H]3CC[C@@]21C" and write its reported TOTAL BILIRUBIN.
Found: 0.65

Lookup: Consider the compound Cc1cnc(C(=O)NCCc2ccc(S(=O)(=O)NC(=O)NC3CCCCC3)cc2)cn1 [GLIPIZIDE] . State its measured TOTAL BILIRUBIN.
Found: 0.2

Lookup: Using the record for "CCOC(=O)[C@H](CCc1ccccc1)N[C@@H](C)C(=O)N1Cc2ccccc2C[C@H]1C(=O)O" , state its measured TOTAL BILIRUBIN.
Found: 0.2

Lookup: Given C=C(CC)C(=O)c1ccc(OCC(=O)O)c(Cl)c1Cl [ETHACRYNIC ACID] , respond with its TOTAL BILIRUBIN.
Found: 0.68

Lookup: Specify TOTAL BILIRUBIN for C[C@@H]1CC[C@H]2[C@@H](C)C(=O)O[C@@H]3O[C@@]4(C)CC[C@@H]1[C@]32OO4 [ARTEMISININ] and stop.
Found: 0.2

Lookup: Please give measured TOTAL BILIRUBIN of the following entry: CC(C)(Sc1cc(C(C)(C)C)c(O)c(C(C)(C)C)c1)Sc1cc(C(C)(C)C)c(O)c(C(C)(C)C)c1 [PROBUCOL]
Found: 0.2

* * *

# Species on record: Rattus norvegicus
# protocol.details: DrugMatrix - Regimen: Daily Repeat
# Format: toxicity, organism-based, Sprague-Dawley
# Set-up: regimen Daily Repeat, gender Male, age 6-8 weeks
# experimental.parameters: in vivo, po, 1500 mg/kg, 72 h, tissue Plasma, route oral GAVAGE, dose level High, time 3 day, vehicle .5 % CMC
Listed next: entries and their corresponding ASPARTATE AMINOTRANSFERASE.
# unit: u/L | format: bare number

# example entries with known answers
>  <molecule>
O=c1cc(-c2ccccc2)oc2ccc3ccccc3c12

>  <ASPARTATE AMINOTRANSFERASE / u/L>
61.67

$$$$
>  <molecule>
CCOC(=O)[C@H](CCc1ccccc1)N[C@@H](C)C(=O)N1CCC[C@H]1C(=O)O

>  <ASPARTATE AMINOTRANSFERASE / u/L>
57.33

$$$$
>  <molecule>
CC(C)(Sc1cc(C(C)(C)C)c(O)c(C(C)(C)C)c1)Sc1cc(C(C)(C)C)c(O)c(C(C)(C)C)c1

>  <ASPARTATE AMINOTRANSFERASE / u/L>
77.33

$$$$
>  <molecule>
C[C@@H](O)[C@H]1C(=O)N2C(C(=O)O)=C(S[C@@H]3CN[C@H](C(=O)N(C)C)C3)[C@H](C)[C@H]12

>  <ASPARTATE AMINOTRANSFERASE / u/L>
76

$$$$

Field: next molecule
Lookup: Indicate the recorded ASPARTATE AMINOTRANSFERASE value for this molecule: Nc1nc2c(c(=O)[nH]1)N(C=O)C(CNc1ccc(C(=O)N[C@@H](CCC(=O)O)C(=O)O)cc1)CN2 (stereo not given in full)
Found: 77.67

* * *

# Species on record: Rattus norvegicus
# protocol.details: DrugMatrix - Regimen: Daily Repeat
# Type: toxicity, organism-based, Sprague-Dawley
# Parameters: regimen Daily Repeat, gender Male, age 6-8 weeks
# experimental.parameters: in vivo, ip, 40 mg/kg, […], tissue Blood, route intraperitoneal, dose level High, time 14 day, vehicle 100 % SALINE
readout.kind: ABSOLUTE BASOPHIL (cells/µL)
The reply should contain only the number, in cells/µL.

Lookup: Find the measured ABSOLUTE BASOPHIL of "NC[C@H]1O[C@H](O[C@H]2[C@H](O)[C@@H](O[C@H]3O[C@H](CO)[C@@H](O)[C@H](N)[C@H]3O)[C@H](N)C[C@@H]2N)[C@H](N)C[C@@H]1O" and report it.
Found: 120

* * *

# key: entry, value: NEUTROPHIL
# Species: Rattus norvegicus
# protocol.details: DrugMatrix - Regimen: Daily Repeat
# Assay type: toxicity, organism-based, Sprague-Dawley
# Design: regimen Daily Repeat, gender Male, age 6-8 weeks
# experimental.parameters: in vivo, po, 1500 mg/kg, 120 h, tissue Blood, route oral GAVAGE, dose level High, time 5 day, vehicle .5 % CMC
State the answer as a number, implicitly in %.

Please review the entries below; each comes with its answer.
>  <compound>
CC(C)(Sc1cc(C(C)(C)C)c(O)c(C(C)(C)C)c1)Sc1cc(C(C)(C)C)c(O)c(C(C)(C)C)c1

>  <unit.annotation>
%

>  <NEUTROPHIL>
8.33

$$$$
>  <compound>
Nc1nc2c(c(=O)[nH]1)N(C=O)C(CNc1ccc(C(=O)N[C@@H](CCC(=O)O)C(=O)O)cc1)CN2 (stereo not given in full)

>  <unit.annotation>
%

>  <NEUTROPHIL>
6

$$$$
>  <compound>
CCOC(=O)[C@H](CCc1ccccc1)N[C@@H](C)C(=O)N1CCC[C@H]1C(=O)O

>  <unit.annotation>
%

>  <NEUTROPHIL>
6

$$$$
>  <compound>
O=c1cc(-c2ccccc2)oc2ccc3ccccc3c12

>  <unit.annotation>
%

>  <NEUTROPHIL>
11.33

$$$$

Consider now this further compound.
Lookup: Please give measured NEUTROPHIL of the following entry: "C[C@@H](O)[C@H]1C(=O)N2C(C(=O)O)=C(S[C@@H]3CN[C@H](C(=O)N(C)C)C3)[C@H](C)[C@H]12"
Found: 10
